Test system: NOMO1
assay.notes: cell viability relative to DMSO control; higher = less cytotoxic
cond: RPMI 5 mM glucose + 10% FBS; 48 h; 0.569 µM

molecule	units.text	cell viability
C[C@]12COC(=O)C[C@@H]1CC[C@@H]1[C@@H]2CC[C@@]2(C)[C@H]1CC[C@]2(C)O	%	95.1
C[C@](Cc1c[nH]c2ccccc12)(NC(=O)OC1C2CC3CC(C2)CC1C3)C(=O)NC[C@H](NC(=O)CCC(=O)O)c1ccccc1 (stereo partly specified)	%	125
CCN1CCN(CC1)CC(=O)NC2=CC=C(C3=C2C4=C(S3)C=CC=C4)C5=C6O\C(=C/C(=O)C6=CC=C5)N7CCOCC7	%	130
CC(C)OC(=O)/C1=C/N(CC(C)(C)C2=C1[NH]C3=CC=CC=C23)C(=O)C4=CC=C(F)C(=C4)F	%	84.3
COC(=O)C[C@](O)(CCCC(C)(C)O)C(=O)O[C@@H]1C(OC)=CC23CCCN2CCc2cc4c(cc2[C@H]13)OCO4 (stereo partly specified)	%	105
O=C(Nc1cccc(C(F)(F)F)c1)Nc1cc([S+](=O)([O-])NC2CC2)ccc1-c1ccsc1	%	105

====

System: P12-Ichikawa
assay.notes: cell viability relative to DMSO control; higher = less cytotoxic
cond: RPMI 5 mM glucose + 10% FBS; 48 h; 5.12 µM

chemical.string	cell viability / %
CC(C)OC(=O)/C1=C/N(CC(C)(C)C2=C1[NH]C3=CC=CC=C23)C(=O)C4=CC=C(F)C(=C4)F	87.2
COc1cc(F)c(F)c(Nc2ccc(I)cc2F)c1N[S+](=O)([O-])C1(C[C@H](O)CO)CC1	115
CC(C)(C)OC(=O)N[C@H]1CCCCC/C=C\[C@@H]2C[C@@]2(C(=O)N[S+](=O)([O-])C2CC2)NC(=O)[C@@H]2C[C@@H](OC(=O)N3Cc4cccc(F)c4C3)CN2C1=O	113
C[C@H](NC(=O)c1sccc1OCc1ccc(Cl)cc1)c1ccccc1	74.5
CNCCCC12CCC(c3ccccc31)c1ccccc12	84.4
CC[C@H](NC1=C2N=C[NH]C2=NC=N1)C/3=N/C4=C(C(=CC=C4)F)C(=O)N3C5=CC=CC=C5	78.2
C[C@]12CC[C@H]3[C@@H](CC[C@H]4NC(=O)\C=C/[C@]34C)[C@@H]1CC[C@@H]2C(=O)NC5=CC(=CC=C5C(F)(F)F)C(F)(F)F	107
OC[C@H]1O[C@H]([C@H](O)[C@@H]1O)N2\C=C/C(=O)NC2=O	107
N[S+]([O-])(=O)C1=C(Cl)C=C2\N=C/N[S+]([O-])(=O)C2=C1	115
CN[C@@H](C)[C@H]1[C@H](O)C[C@@]2(C)[C@@H]3CC[C@H]4C(C)(C)[C@@H](NC)CC[C@@]45C[C@@]35CC[C@]12C	81.9
O=C(Nc1cccc(C(F)(F)F)c1)Nc1cc([S+](=O)([O-])NC2CC2)ccc1-c1ccsc1	112
O=C(Nc1cc(Cl)cc2c1[nH]c1cnccc12)c1cccnc1	114
N#CCNC(=O)c1ccc(-c2ccnc(Nc3ccc(N4CCOCC4)cc3)n2)cc1	102
c1ccc(CCCN2CCN(CCOC(c3ccccc3)c3ccccc3)CC2)cc1	92.3
FC1=C(C=C(C\C2=N\NC(=O)C3=C2C=CC=C3)C=C1)C(=O)N4CCN(CC4)C(=O)C5CC5	83.8

Data credit: the supplement of paper PMC11451515
